# ASSAY_EXPLANATION: Initial plasma concentration in CD-1 mouse at 3 mg/kg, iv measured at 0 mins
# Format: ADME, organism-based
OBSERVED_PROPERTY: C0 at 0 h (ng/mL)
A number alone suffices; assume ng/mL.

**Q:** Given the entry "CN1CCc2c(c3ccccc3n2Cc2ccc(C(=O)NO)cc2)C1" , report its measured C0 at 0 h.
**A:** 1240

* * *

# ASSAY_EXPLANATION: Metabolic stability in mouse liver microsomes assessed as half life
# Type: ADME, Microsome
OBSERVED_PROPERTY: half-life

**Q:** Given the entry CN1CCc2c(c3ccccc3n2Cc2ccc(C(=O)NO)cc2)C1 [TUBASTATIN A] , report its measured half-life.
**A:** > 1 h
